Biological target: T1, Human TREM2 protein, on cells (human, UniProt Q9NZC2 19-230)
T1 sequence: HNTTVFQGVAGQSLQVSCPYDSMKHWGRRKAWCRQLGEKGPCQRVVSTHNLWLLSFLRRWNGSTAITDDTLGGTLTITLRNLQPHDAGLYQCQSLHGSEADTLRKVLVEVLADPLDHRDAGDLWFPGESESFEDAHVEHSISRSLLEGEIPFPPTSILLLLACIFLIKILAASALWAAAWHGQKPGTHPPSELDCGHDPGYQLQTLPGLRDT
Assay: cell-based or functional assay
measurement.name: pSyk FOB (30 nM Ab) (fold over background)

binder	output.unit	endpoint.value
21D11 (antibody, IgG2a, V domains shown, Mouse hybridoma antibody, IgG2a, k; also called 21D11.B1; RS8.21D11.B1) VH: QVQLQQSGAELARPGASVKLSCKASGYTFTSYWIQWVKQRPGQGLEWIGTIYPGDGDARYTQKFKGKATLTADKSSSTTYMQLNSLASEDSAVYYCARNGITTAGYYAMDYWGQGTSVTVSS VL: DIQMTQSPASLSVSVGETVTITCRASENIYSNLAWYQQKQGRSPQLLVYAATNLADGVPSRFSGSGSGTQYSLKINSLQSEDFGYYYCQHFWGTPYTFGGGTKVEIK	fold over background	1.68
57D7.A1 (antibody, V domains shown, Mouse hybridoma antibody, Ig2a, k; also called RS8.57D7.A1) VH: QVQLKESGPGLVAPSQSLSITCTVSGFSLSRYSVYWVRQPPGKGLEWLGMIWGGGNTDYNSALKSRLSISKDNSKSQVFLKMNSLQTDDSAMYYCVQYGGMDYWGQGTSVTVSS VL: DVLMTQTPLSLPVSLGDQASISCRSSQSIVHSNGNTYLEWYLQKPGQSPKLLIYKVSNRFSGVPDRFSGSGSGTDFTLKISRVEAEDLGVYYCFQGSHVPYTFGGGTKLEIK	fold over background	5.02
